tested on: Fluoroquinolone resistant strain derived from H37Rv Mtb, gyrA mutant (D94N); format: cell-based, Mycobacterium tuberculosis
Give MIC FQ res for every item shown.
Give the quantity in µM, number only.

Q) I'm curious: which MIC FQ res was measured for NNC(=O)c1ccncc1 [INH, Isoniazid] tested on Fluoroquinolone resistant strain derived from H37Rv Mtb, gyrA mutant (D94N)?
A) 0.34

Q) Fluoroquinolone resistant strain derived from H37Rv Mtb, gyrA mutant (D94N) / MIC FQ res / CO[C@H]1/C=C/O[C@@]2(C)Oc3c(C)c(O)c4c(O)c(c(/C=N/N5CCN(C)CC5)c(O)c4c3C2=O)NC(=O)/C(C)=C\C=C\[C@H](C)[C@H](O)[C@@H](C)[C@@H](O)[C@@H](C)[C@H](OC(C)=O)[C@@H]1C [RIF, Rifampicin] : value?
A) 0.043

Q) Hello, I am looking for reported MIC FQ res with Fluoroquinolone resistant strain derived from H37Rv Mtb, gyrA mutant (D94N) for CCc1nc2sc(C)cn2c1C(=O)NCc1ccc(Oc2cccc(C(F)(F)F)c2)nc1 [ND-12024] . Could you help?
A) 0.40
